assay: Drug level in CD1 mouse brain at 5 mg/kg, ip after 1 hr by LC-MS/MS system; format: ADME, organism-based; set-up: dose 5 mg/kg, route intraperitoneal; conditions: read-out: Drug uptake
Quick reference for concentration at 1 h among some molecules

Molecule: C[C@H](Nc1c(-c2c(F)cc(OCCCNCC(F)(F)F)cc2F)c(Cl)nc2ncnn12)C(F)(F)F
concentration at 1 h / nM: 230

Molecule: C[C@H](Nc1c(-c2c(F)cc(OCCCO)cc2F)c(Cl)nc2ncnn12)C(F)(F)F
concentration at 1 h / nM: 78

Molecule: C[C@H](Nc1c(-c2c(F)cc(OCCCN(C)C)cc2F)c(Cl)nc2ncnn12)C(F)(F)F
concentration at 1 h / nM: 1300

Molecule: CNCCCOc1cc(F)c(-c2c(Cl)nc3ncnn3c2N[C@@H](C)C(F)(F)F)c(F)c1 [CEVIPABULIN]
concentration at 1 h / nM: 92

Molecule: CC(=O)N(C)CCCOc1cc(F)c(-c2c(Cl)nc3ncnn3c2N[C@@H](C)C(F)(F)F)c(F)c1
concentration at 1 h / nM: 20

Molecule: C[C@H](Nc1c(-c2c(F)cc(F)cc2F)c(Cl)nc2ncnn12)C(F)(F)F
concentration at 1 h / nM: 2400

Molecule: C[C@H](Nc1nc(-c2ccccn2)nc(Cl)c1-c1c(F)cc(F)cc1F)C(F)(F)F
concentration at 1 h / nM: 1500

Molecule: C[C@H](Nc1nc(-c2cnccn2)nc(Cl)c1-c1c(F)cc(OCCCN(C)C)cc1F)C(F)(F)F
concentration at 1 h / nM: 860

Molecule: C[C@H](Nc1nc(-c2cnccn2)nc(Cl)c1-c1c(F)cc(F)cc1F)C(F)(F)F
concentration at 1 h / nM: 2900
